test: inhibitors of the yeast RAM network, pilot screen, dse1pr::URA3 reporter, 5-FOA selection (AID 869);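 also: 0% = DMSO wells with no growth and 100% = 10 µM 1-NA-PP1 with full growth; RAM network block rescues cells from 5-FOA so hits raise OD615 growth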; details: S. cerevisiae dse1pr::URA3 5-FOA growth, OD615, 2 d; at 10 µM; stronger effect = higher value; strain carries analog-sensitive mutant Cbk1 kinase
Below, each entry is listed with its recorded inhibition.
endpoint: inhibition (%)

>  <compound>
COC(=O)CN1C(=O)COc2ccc(Cl)cc21

>  <endpoint>
inhibition

>  <units_of_measure>
%

>  <obs_value>
0.605

$$$$
>  <compound>
COc1ccc(OC)c(NC(=O)NC2(C(F)(F)F)Oc3ccccc3O2)c1

>  <endpoint>
inhibition

>  <units_of_measure>
%

>  <obs_value>
0.25

$$$$
>  <compound>
CCc1cccc(C)c1NC(=O)CCCC(=O)O

>  <endpoint>
inhibition

>  <units_of_measure>
%

>  <obs_value>
0.44

$$$$
>  <compound>
Cc1cc2ccccc2c(=O)n1CC(=O)NCC(=O)N(C)Cc1ccccc1

>  <endpoint>
inhibition

>  <units_of_measure>
%

>  <obs_value>
0.475

$$$$
>  <compound>
CCCCCn1c(SCCOCC)nc2c1c(=O)[nH]c(=O)n2C

>  <endpoint>
inhibition

>  <units_of_measure>
%

>  <obs_value>
1.75

$$$$
>  <compound>
COc1ccc(C(C(=O)NC2CCCC2)N2CCc3ccccc32)cc1 (stereo unspecified)

>  <endpoint>
inhibition

>  <units_of_measure>
%

>  <obs_value>
1.26

$$$$
